experiment: Metabolic stability in mouse liver microsomes
Assay type: in vitro ADME
condition info: 100 μM, 37° C.
Experimental: The objective of the study is to determine the metabolic stability of the compounds in mouse liver microsomes. Brief procedure: metabolic stability of test compounds were carried out using mouse liver microsomes. […] The samples were centrifuged and supernatants were analysed using LC/MS/MS. The Percent of parent test compounds remaining after 1 h of incubation time was calculated with respect to the peak areas of at time 0.
Where a name gives a salt, the structure may show the parent alone.
assay readout: % Stable compounds after 1 hr incubation (%)

{"compound": "CN(C)Cc1ccc(-c2cn(Cc3ccc(/C=C/C(=O)NO)cc3)nn2)cc1", "% Stable compounds after 1 hr incubation (%)": 65}
{"compound": "O=C(CCCCCCC(=O)Nc1ccccc1)NO [SAHA, Suberoylanilide Hydroxamic Acid, reference compound]", "% Stable compounds after 1 hr incubation (%)": 67}
{"compound": "O=C(/C=C/c1ccc(Cn2cc(-c3ccc(CN4CCCC4)cc3)nn2)cc1)NO", "% Stable compounds after 1 hr incubation (%)": 98}
{"compound": "O=C(NO)c1ccc(Cn2cc(-c3ccc(CN4CCCC4)cc3)nn2)cc1", "% Stable compounds after 1 hr incubation (%)": 100}

P: O=C(NO)c1ccc(Cn2cc(-c3ccc(CN4CCOCC4)cc3)nn2)cc1
Q: O=C(/C=C/c1cccc(Cn2cc(-c3ccc(CN4CCOCC4)cc3)nn2)c1)NO [Example 25, hydrochloride]
Enquiry: Lab log: flag the item ( P or Q ) with the smaller % Stable compounds after 1 hr incubation figure. Which one? Tell me its label.
Return: Q
(Q: 57%, P: 100%)

----------
system: HDAC2 (Homo sapiens)
Construct: purchased Biomol, USA
Sequence (Q92769 whole entry): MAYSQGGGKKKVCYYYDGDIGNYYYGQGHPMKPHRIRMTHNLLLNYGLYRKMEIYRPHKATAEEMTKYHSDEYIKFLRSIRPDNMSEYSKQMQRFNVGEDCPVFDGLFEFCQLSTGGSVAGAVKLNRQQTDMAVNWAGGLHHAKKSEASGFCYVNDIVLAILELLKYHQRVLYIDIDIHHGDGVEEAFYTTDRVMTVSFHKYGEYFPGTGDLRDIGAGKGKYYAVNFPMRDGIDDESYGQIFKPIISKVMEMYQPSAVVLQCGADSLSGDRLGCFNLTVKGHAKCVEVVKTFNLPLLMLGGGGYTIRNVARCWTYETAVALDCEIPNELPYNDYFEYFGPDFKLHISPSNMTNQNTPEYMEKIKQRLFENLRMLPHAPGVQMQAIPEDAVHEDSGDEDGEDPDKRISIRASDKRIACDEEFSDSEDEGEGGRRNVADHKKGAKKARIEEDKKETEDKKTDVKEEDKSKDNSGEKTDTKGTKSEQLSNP
experiment: biochemical
assay readout: pIC50
FYI, pIC50 means -log10 of a concentration in mol per litre.

Enquiry: Requested read-out pIC50, target or system HDAC2 (Homo sapiens), entry O=C(NO)c1ccc(Cn2cc(-c3ccc(CN4CCCC4)cc3)nn2)cc1 [Example 8]
Return: 7.54

----------
Test system: HCT-116
experiment: Anti-proliferative activity (GI50)
Format: cell-based
condition info: Homo sapiens, HCT-116; Table 9; Colon; read-out: Anti-proliferative activity (GI50) HCT-116
assay readout: GI50 (nM)

P: O=C(/C=C/c1ccc(Cn2cc(-c3ccc(CN4CCCC4)cc3)nn2)cc1)NO [Example 16]
Q: O=C(NO)c1ccc(Cn2cc(-c3ccc(CN4CCOCC4)cc3)nn2)cc1 [Example 9]
Enquiry: Param pair: P , Q . Output: the one whose GI50 is numerically greater. Which one? Tell me its label.
Return: Q

----------
system: hERG (Homo sapiens, UniProt Q12809)
Construct: expressed in transfected cells; host or cells: CHO cells (membrane preparation)
Sequence (Q12809 whole entry): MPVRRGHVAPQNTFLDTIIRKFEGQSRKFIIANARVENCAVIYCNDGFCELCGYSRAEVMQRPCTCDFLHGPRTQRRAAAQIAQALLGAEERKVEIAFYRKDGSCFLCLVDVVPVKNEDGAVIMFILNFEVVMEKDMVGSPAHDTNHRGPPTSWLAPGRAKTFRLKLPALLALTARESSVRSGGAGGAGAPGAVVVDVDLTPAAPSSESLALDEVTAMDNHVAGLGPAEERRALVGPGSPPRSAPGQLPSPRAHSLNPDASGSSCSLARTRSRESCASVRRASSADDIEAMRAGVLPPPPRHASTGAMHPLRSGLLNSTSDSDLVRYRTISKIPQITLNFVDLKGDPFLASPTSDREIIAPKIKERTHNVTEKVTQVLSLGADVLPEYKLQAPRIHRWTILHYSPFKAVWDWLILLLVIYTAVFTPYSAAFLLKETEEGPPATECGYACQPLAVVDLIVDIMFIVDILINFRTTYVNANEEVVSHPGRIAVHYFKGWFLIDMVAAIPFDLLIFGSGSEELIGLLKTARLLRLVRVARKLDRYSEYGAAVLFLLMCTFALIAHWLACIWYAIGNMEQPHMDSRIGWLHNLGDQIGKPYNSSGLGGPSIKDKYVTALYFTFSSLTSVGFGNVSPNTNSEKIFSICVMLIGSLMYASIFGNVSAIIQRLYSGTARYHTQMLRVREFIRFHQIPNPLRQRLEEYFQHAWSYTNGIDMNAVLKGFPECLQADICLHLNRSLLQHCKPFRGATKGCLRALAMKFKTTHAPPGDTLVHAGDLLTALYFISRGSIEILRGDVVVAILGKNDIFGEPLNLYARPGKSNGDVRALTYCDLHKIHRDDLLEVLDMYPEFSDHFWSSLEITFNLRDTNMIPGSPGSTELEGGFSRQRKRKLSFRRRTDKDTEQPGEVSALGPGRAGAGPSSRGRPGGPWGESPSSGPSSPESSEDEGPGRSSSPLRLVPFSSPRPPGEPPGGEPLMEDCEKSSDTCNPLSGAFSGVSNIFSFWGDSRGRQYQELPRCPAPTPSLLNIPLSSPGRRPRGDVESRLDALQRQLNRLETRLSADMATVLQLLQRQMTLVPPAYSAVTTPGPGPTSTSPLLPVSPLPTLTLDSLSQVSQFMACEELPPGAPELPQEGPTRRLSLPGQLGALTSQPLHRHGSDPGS
experiment: hERG competitive binding assay (3H-Astemizole)
condition info: hERG-CHO membrane, 1 nM 3H-Astemizole
assay readout: IC50 (µM)
Numeric only. Scale: µM

{"compound": "O=C(NO)c1ccc(Cn2cc(-c3ccc(CN4CCCC4)cc3)nn2)cc1 [Example 8]", "experimental value": 19.9}

Continue with the next compound.
Enquiry: IC50 for CN(C)Cc1ccc(-c2cn(Cc3ccc(/C=C/C(=O)NO)cc3)nn2)cc1 [Example 21] ?
Return: 42.6

----------
Test system: A431
experiment: Anti-proliferative activity (GI50)
Format: cell-based
condition info: Homo sapiens, A-431; Table 9; Skin; read-out: Anti-proliferative activity (GI50) A431
Description: Cells were seeded in a 96-well cell culture plates at a concentration of 10,000 cells per well and incubated at 37° C. in CO2 incubator. […] The plate containing cells and test compounds was treated similarly after 48 hours of incubation. […] Plates were agitated to ensure dissolution of the formazan crystals in DMSO and absorbance was read at 570 nm (A570). […]
Counter-ions that a name gives are not always drawn.
assay readout: GI50 (nM)

// known answers, use as guide
{"compound": "O=C(/C=C/c1ccc(Cn2cc(-c3ccc(CN4CCCC4)cc3)nn2)cc1)NO", "system": "A431", "GI50 [nM]": 280}
{"compound": "O=C(NO)c1ccc(Cn2cc(-c3ccc(CN4CCOCC4)cc3)nn2)cc1", "system": "A431", "GI50 [nM]": 1200}
{"compound": "O=C(NO)c1ccc(Cn2cc(-c3ccc(CN4CCCC4)cc3)nn2)cc1", "system": "A431", "GI50 [nM]": 500}

A: CN(C)Cc1ccc(-c2cn(Cc3ccc(/C=C/C(=O)NO)cc3)nn2)cc1
B: O=C(/C=C/c1cccc(Cn2cc(-c3ccc(CN4CCOCC4)cc3)nn2)c1)NO [Example 25, hydrochloride]
Enquiry: Param pair: A , B . Output: the one whose GI50 is numerically greater. Which one? Tell me its label.
Return: A
